Biological target: Phospho-N-acetylmuramoyl-pentapeptide-transferase (Aquifex aeolicus (strain VF5))
Sequence (O66465 whole entry): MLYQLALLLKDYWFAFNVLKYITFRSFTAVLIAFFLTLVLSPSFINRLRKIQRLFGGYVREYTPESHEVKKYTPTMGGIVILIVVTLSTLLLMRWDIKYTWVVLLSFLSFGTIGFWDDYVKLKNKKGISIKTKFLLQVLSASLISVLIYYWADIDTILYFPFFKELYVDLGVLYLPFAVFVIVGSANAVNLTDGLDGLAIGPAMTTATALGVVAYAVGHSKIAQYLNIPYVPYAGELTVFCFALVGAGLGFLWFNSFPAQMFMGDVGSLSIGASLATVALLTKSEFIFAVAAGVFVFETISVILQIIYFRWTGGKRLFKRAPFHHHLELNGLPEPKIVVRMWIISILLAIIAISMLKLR
Test: Inhibition of MraY in Aquifex aeolicus
Values of IC50 strictly less than 80 µM map to Condition met, and values of at least 80 µM map to Condition not met.

Does this compound meet the criterion IC50 < 80 µM? CCCCCCCCCCc1cn(C[C@H](O[C@@H]2O[C@H](CN)[C@@H](O)[C@H]2O)[C@H]2O[C@@H](n3ccc(=O)[nH]c3=O)[C@H](O)[C@@H]2O)nn1
Condition met

Does this compound meet the criterion IC50 < 80 µM? NC[C@H]1O[C@@H](O[C@@H](c2cn(Cc3ccc(COc4ccc(C(=O)c5ccccc5)cc4)cc3)nn2)[C@H]2O[C@@H](n3ccc(=O)[nH]c3=O)[C@H](O)[C@@H]2O)[C@H](O)[C@@H]1O
Condition met

Does this compound meet the criterion IC50 < 80 µM? NCCCCCCCCCc1cn(C[C@H](O[C@@H]2O[C@H](CN)[C@@H](O)[C@H]2O)[C@H]2O[C@@H](n3ccc(=O)[nH]c3=O)[C@H](O)[C@@H]2O)nn1
Condition not met

Does this compound meet the criterion IC50 < 80 µM? NCCCCCCCCCn1cc(C[C@H](O[C@@H]2O[C@H](CN)[C@@H](O)[C@H]2O)[C@H]2O[C@@H](n3ccc(=O)[nH]c3=O)[C@H](O)[C@@H]2O)nn1
Condition not met

Does this compound meet the criterion IC50 < 80 µM? NC[C@H]1O[C@@H](O[C@@H](Cc2cn(CCCCCCCCCCc3ccccc3)nn2)[C@H]2O[C@@H](n3ccc(=O)[nH]c3=O)[C@H](O)[C@@H]2O)[C@H](O)[C@@H]1O
Condition met

Does this compound meet the criterion IC50 < 80 µM? NC[C@H]1O[C@@H](O[C@@H](Cc2cn(CCCCCO)nn2)[C@H]2O[C@@H](n3ccc(=O)[nH]c3=O)[C@H](O)[C@@H]2O)[C@H](O)[C@@H]1O
Condition not met

Does this compound meet the criterion IC50 < 80 µM? NC[C@H]1O[C@@H](O[C@@H](Cc2cn(Cc3ccc(COc4ccc(C(=O)c5ccccc5)cc4)cc3)nn2)[C@H]2O[C@@H](n3ccc(=O)[nH]c3=O)[C@H](O)[C@@H]2O)[C@H](O)[C@@H]1O
Condition met

Does this compound meet the criterion IC50 < 80 µM? NC[C@H]1O[C@@H](O[C@@H](Cn2cc(CCCCCCCCCCOc3ccc(C(=O)c4ccccc4)cc3)nn2)[C@H]2O[C@@H](n3ccc(=O)[nH]c3=O)[C@H](O)[C@@H]2O)[C@H](O)[C@@H]1O
Condition met

Does this compound meet the criterion IC50 < 80 µM? NC[C@H]1O[C@@H](O[C@@H](c2cn(CCCOc3ccc(C(=O)c4ccccc4)cc3)nn2)[C@H]2O[C@@H](n3ccc(=O)[nH]c3=O)[C@H](O)[C@@H]2O)[C@H](O)[C@@H]1O
Condition not met

Does this compound meet the criterion IC50 < 80 µM? NC[C@H]1O[C@@H](O[C@@H](Cn2cc(CCCCCO)nn2)[C@H]2O[C@@H](n3ccc(=O)[nH]c3=O)[C@H](O)[C@@H]2O)[C@H](O)[C@@H]1O
Condition not met
